Can you tell me half-life for the items I'm about to list?
# Tested on: human liver microsomes, metabolic stability half-life
# Assay details: NCATS Human Liver Microsomal (HLM) Stability Profiling
# Condition: higher = more stable; screened at 1 µM (by protocol)

Below are worked cases with known answers.
C#C[C@]1(O)CC[C@H]2[C@@H]3CCC4=CC(=O)CCC4=C3C=C[C@@]21CC : 38.2 min
CCNCc1nc2c(N)nc3ccccc3c2n1CC(C)(C)O : > 120 min

Could you tell me half-life for each of these compounds? They are listed below.
1. FC(F)(F)Oc1ccc(-c2ccc3nnc(C(F)(F)F)n3c2)cc1
2. C[C@@H](Oc1cc(-n2cnc3ccc(OC4CCN(C)CC4)cc32)sc1C(N)=O)c1ccccc1C(F)(F)F
3. CC(=O)OCC(=O)[C@@]1(O)CC[C@H]2[C@@H]3CCC4=CC(=O)C=C[C@]4(C)[C@@]3(F)[C@@H](O)C[C@@]21C

Reply text:
1. > 120 min
2. 8.99 min
3. 87.5 min

Hi, could you look up half-life for each item in my list?
1. COc1cc(C(=O)N2CCCCCCC2)cc(OC)c1OC
2. Cc1ncc(CSSCc2cnc(C)c(O)c2CO)c(CO)c1O
3. CC(C)(C)C1CCC(CC2=C(O)c3ccccc3C(=O)C2=O)CC1 (stereo not given)
4. N#Cc1ccc(C(=O)Nc2ccc(Cl)c(-c3nc4cc(Cl)ccc4o3)c2)c(F)c1
5. COc1cc2ncnc(Nc3cc(Br)c(O)c(Br)c3)c2cc1OC
6. C#CCN(Cc1cc2c(=O)n(C)c(CN3CCN(C)CC3)nc2cc1Cl)c1ccc(C(=O)NCc2cccnc2)cc1
7. CC[C@H](C)C(=O)O[C@H]1C[C@@H](C)C=C2C=C[C@H](C)[C@H](CC[C@@H]3C[C@@H](O)CC(=O)O3)[C@H]21

Reply text:
1: 29.3 min; 2: > 120 min; 3: > 120 min; 4: 15.4 min; 5: > 120 min; 6: 4.83 min; 7: 7.05 min

List the reported half-life of each compound below.
1. COc1ccc(Nc2nnc(-c3ccc(C)c(S(=O)(=O)NCc4nc5ccccc5[nH]4)c3)c3ccccc23)cc1
2. COc1ccc(-n2nc(C3CCCN(CC4CCCCC4)C3)[nH]c2=O)cc1 (stereo not given)
3. COCCCNC(=O)C(=O)Nc1c2c(nn1-c1cccc(Cl)c1)CSC2

Reply text:
5.8 min
108 min
24.9 min

Could you report half-life for every entry in the following list?
1. CCN(Cc1ccc(Cl)nc1)/C(=C/[N+](=O)[O-])NC
2. CCCCCCCCC(=O)NCc1ccc(O)c(OC)c1
3. Cc1cc2c(F)c(Oc3ncnn4cc(OCC(C)O)c(C)c34)ccc2[nH]1 (stereo not given)
4. CCNP(=S)(OC)O/C(C)=C/C(=O)OC(C)C (stereo not given)
5. CCCCCn1cc(C(=O)Oc2cccc3cccnc23)c2ccccc21

Reply text:
1. > 120 min
2. 3.71 min
3. > 120 min
4. > 120 min
5. 4.97 min
